These measurements were taken from patent US12110286B2.

- ASSAYED_SYSTEM: Trx-6×His-BCL6 (human BCL6 BTB domain covering amino-acid sequence 5-129) (Homo sapiens (Human))
- TEST_SUMMARY: HTRF in vitro assay (BCL6 / BCOR-AF633 peptide)
- Format: binding
- ASSAY_CONTEXT: initially generated data; 10 nM Trx-6×His-BCL6, 300 nM BCOR-AF633 peptide, 1 nM anti-6×His-Terbium cryptate
- Protocol: The % inhibition at each concentration was calculated by normalising FRET ratio to the appropriate high (DMSO with all reagents) and low (DMSO without BCL6) controls.

[
  {
    "MOLECULE": "CCOC(=O)c1cc(Nc2ccc3c(c2)n(CCC(C)(C)O)c(=O)n3C)n2nccc2n1",
    "HTRF pIC50": 5.79
  },
  {
    "MOLECULE": "COC(=O)C(C)Cn1c(=O)n(C)c2ccc(Nc3ccnc(Cl)c3C#N)cc21 (centres unmarked)",
    "HTRF pIC50": 5.39
  },
  {
    "MOLECULE": "COC(=O)C(C)CCn1c(=O)n(C)c2ccc(Nc3ccnc(Cl)c3C#N)cc21 (centres unmarked)",
    "HTRF pIC50": 5.67
  },
  {
    "MOLECULE": "CNC(=O)c1cc(Nc2ccc3c(c2)n(CCC(C)(C)O)c(=O)n3CC2CCOCC2)c(C#N)c(Cl)n1",
    "HTRF pIC50": 5.82
  },
  {
    "MOLECULE": "COC(=O)C(O)CCn1c(=O)n(C)c2ccc(Nc3ccnc(Cl)c3C#N)cc21 (centres unmarked)",
    "HTRF pIC50": 5.83
  },
  {
    "MOLECULE": "CNC(=O)c1cc(Nc2ccc3c(c2)n(CCC(C)(C)O)c(=O)n3C)c(C#N)c(Cl)n1",
    "HTRF pIC50": 6.48
  },
  {
    "MOLECULE": "CCOC(=O)c1cc(Nc2ccc3c(c2)n(CC[C@@H](C)O)c(=O)n3C)c(C#N)c(Cl)n1",
    "HTRF pIC50": 6.17
  },
  {
    "MOLECULE": "CNC(=O)c1cc(Nc2ccc3c(c2)n(CC[C@@H](C)O)c(=O)n3C)c(C#N)c(Cl)n1",
    "HTRF pIC50": 5.99
  }
]

----------
// reported HTRF pIC50 per item
- ASSAYED_SYSTEM: Trx-6×His-BCL6 (human BCL6 BTB domain covering amino-acid sequence 5-129) (Homo sapiens (Human), UniProt P41182)
- TEST_SUMMARY: HTRF in vitro assay (BCL6 / BCOR-AF633 peptide)
- Assay type: binding
- ASSAY_CONTEXT: further generated data; 1 nM Trx-6×His-BCL6, 300 nM BCOR-AF633 peptide, 0.5 nM anti-6×His-Terbium cryptate

[
  {
    "MOLECULE": "Cc1cc(C)n(-c2ncc(Cl)c(Nc3ccc4c(c3)[nH]c(=O)n4C)n2)n1 [Example 15h]",
    "HTRF pIC50": 5.86
  },
  {
    "MOLECULE": "COCC1CCCN(c2ncc(Cl)c(Nc3ccc4c(c3)n(CCC(C)(C)O)c(=O)n4C)n2)C1 (centres unmarked) [Example 35v]",
    "HTRF pIC50": 6.70
  },
  {
    "MOLECULE": "COCC1CN(c2ncc(Cl)c(Nc3ccc4c(c3)n(CCC(C)(C)O)c(=O)n4C)n2)CCC1(F)F (centres unmarked) [Example 35b]",
    "HTRF pIC50": 6.70
  },
  {
    "MOLECULE": "Cn1c(=O)n(CCC(C)(C)O)c2cc(Nc3nc(N4CCC(n5cccn5)CC4)ncc3Cl)ccc21 [Example 42i]",
    "HTRF pIC50": 6.85
  },
  {
    "MOLECULE": "Cc1cc(C)n(-c2cc(Nc3ccc4c(c3)n(CCC(C)(C)O)c(=O)n4C)c(C#N)cn2)n1 [Example 15o]",
    "HTRF pIC50": 5.88
  },
  {
    "MOLECULE": "Cn1c(=O)n(CCC(C)(C)O)c2cc(Nc3nc(N4CCCC(C(F)(F)F)C4)ncc3Cl)ccc21 (centres unmarked) [Example 20h]",
    "HTRF pIC50": 6.49
  },
  {
    "MOLECULE": "CC1OCCC1Cn1c(=O)n(C)c2ccc(Nc3ccnc(Cl)c3C#N)cc21 (centres unmarked) [Example 19b]",
    "HTRF pIC50": 5.55
  },
  {
    "MOLECULE": "Cn1c(=O)n(CCS(C)(=O)=O)c2cc(Nc3ccnc(Cl)c3C#N)ccc21 [Example 18b]",
    "HTRF pIC50": 5.31
  }
]
